# experiment: Fluorimetry: absorption and emission spectra, Stokes shift, molar absorption coefficient, quantum efficiency
# Type: physicochemical
# Design: key: λmaxem − λmaxabs (emission peak minus absorption peak)
# experimental.setup: pH 7; λmaxem-λmaxabs
measured.property: Stokes shift

Example entries and their recorded answers appear below.
smiles	test.result
CCOC(=O)c1cc(C(=O)OCC)c2cc(-c3ccc(-c4ccccc4)cc3)ccc2n1	75
Nc1ccc(-c2ccc(-c3cn(-c4ccc5oc(=O)c(C(=O)O)cc5c4)nn3)cc2)cc1	50

P: O=C(O)c1cc(C(=O)O)c2cc(-c3ccc(-c4ccccc4)cc3)ccc2n1
Q: CCOC(=O)c1cc2cc(-n3cc(-c4ccc(-c5ccc(N)cc5)cc4)nn3)c(OC)cc2oc1=O
// which entry has the larger Stokes shift value, P or Q ? Answer format: the label of the selected item. P

----------
# experiment: Fluorimetry: absorption and emission spectra, Stokes shift, molar absorption coefficient, quantum efficiency
# Type: physicochemical
# Set-up: unit not given here
# experimental.setup: phosphate buffer pH 5.5 (0.2 M)
measured.property: λmax em

molecule	measured.property	test.result
CCOC(=O)c1cc2cc(-n3cc(-c4ccc(-c5ccc(N)cc5)cc4)nn3)ccc2oc1=O [B09]	λmax em	412
Nc1ccc(-c2ccc(-c3cn(-c4ccc5oc(=O)c(C(=O)O)cc5c4)nn3)cc2)cc1 [LSP17-1115]	λmax em	408
CCOC(=O)c1cc2cc(C#Cc3ccc(-c4ccc(N)cc4)cc3)c(O)cc2oc1=O [F11]	λmax em	410
Nc1ccc(-c2ccc(C#Cc3cc4cc(C(=O)O)c(=O)oc4cc3O)cc2)cc1 [LSP17-1173]	λmax em	412
O=C(O)c1cc(C(=O)O)c2cc(-c3ccc(-c4ccccc4)cc3)ccc2n1 [LSP13-1152-YL152 (L8)]	λmax em	410

----------
# experiment: Fluorimetry: absorption and emission spectra, Stokes shift, molar absorption coefficient, quantum efficiency
# Type: physicochemical
# Design: unit not given here
# experimental.setup: DMSO
measured.property: λmax em

smiles	λmax em
CCOC(=O)c1cc2cc(-n3cc(-c4ccc(-c5ccc(N)cc5)cc4)nn3)c(OC)cc2oc1=O	410-430
CCOC(=O)c1cc2cc(C#Cc3ccc(-c4ccc(N)cc4)cc3)c(O)cc2oc1=O	500-620

Tell me λmax em reported for `COc1cc2oc(=O)c(C(=O)O)cc2cc1-n1cc(-c2ccc(-c3ccc(N)cc3)cc2)nn1` 405-511

Tell me λmax em reported for `CCOC(=O)c1cc(C(=O)OCC)c2cc(-c3ccc(-c4ccccc4)cc3)ccc2n1` 420-570
